From: patent US10500249B2

- target system: EGFR(L861Q) (h) (Homo sapiens, UniProt P00533, L861Q)
- Construct: purchased Millipore
- assay explanation: Kinase Profiling Assay
- Format: biochemical
- assay conditions: 100 μM
As shown below, each of these sequences has a reported % activity value.

seq: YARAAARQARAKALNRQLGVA (Mammalian) [MMI-0200]
% activity [%]: 74
//
seq: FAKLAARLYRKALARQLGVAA [MMI-0300]
% activity [%]: 25
//
seq: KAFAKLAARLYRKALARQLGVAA [MMI-0400]
% activity [%]: 22
//
seq: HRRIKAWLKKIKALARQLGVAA (Mammalian) [MMI-0500]
% activity [%]: 15

---

As shown below, each of these sequences has a reported % activity value.
- target system: Tie2 (h) (Homo sapiens, UniProt Q02763)
- Sequence (Q02763 23-1124): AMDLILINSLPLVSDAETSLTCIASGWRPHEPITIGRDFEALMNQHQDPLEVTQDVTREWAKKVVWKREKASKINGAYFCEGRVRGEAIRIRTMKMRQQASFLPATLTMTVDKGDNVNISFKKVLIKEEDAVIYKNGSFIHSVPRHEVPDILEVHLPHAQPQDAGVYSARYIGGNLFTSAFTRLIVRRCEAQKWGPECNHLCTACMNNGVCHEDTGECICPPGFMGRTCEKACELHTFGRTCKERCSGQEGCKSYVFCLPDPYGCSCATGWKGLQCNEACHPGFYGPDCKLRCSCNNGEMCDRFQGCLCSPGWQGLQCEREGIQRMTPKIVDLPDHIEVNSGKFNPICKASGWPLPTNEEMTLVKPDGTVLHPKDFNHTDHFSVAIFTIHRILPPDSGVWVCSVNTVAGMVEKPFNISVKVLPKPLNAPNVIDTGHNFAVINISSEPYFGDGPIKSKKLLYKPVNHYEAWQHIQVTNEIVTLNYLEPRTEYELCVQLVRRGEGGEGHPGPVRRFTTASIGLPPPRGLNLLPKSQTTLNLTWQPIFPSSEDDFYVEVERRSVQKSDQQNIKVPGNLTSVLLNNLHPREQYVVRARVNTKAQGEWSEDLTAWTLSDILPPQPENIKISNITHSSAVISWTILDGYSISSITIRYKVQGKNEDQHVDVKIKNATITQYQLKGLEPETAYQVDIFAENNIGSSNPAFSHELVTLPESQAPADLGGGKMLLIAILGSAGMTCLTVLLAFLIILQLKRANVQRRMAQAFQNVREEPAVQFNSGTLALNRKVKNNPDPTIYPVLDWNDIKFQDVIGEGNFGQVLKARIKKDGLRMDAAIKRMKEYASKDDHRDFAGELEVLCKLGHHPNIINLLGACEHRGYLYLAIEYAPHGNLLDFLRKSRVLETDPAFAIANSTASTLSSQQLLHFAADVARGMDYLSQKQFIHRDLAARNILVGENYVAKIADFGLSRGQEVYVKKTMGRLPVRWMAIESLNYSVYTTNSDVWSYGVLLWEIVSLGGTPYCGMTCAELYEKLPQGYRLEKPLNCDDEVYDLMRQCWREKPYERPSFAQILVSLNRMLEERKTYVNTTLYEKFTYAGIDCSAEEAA
- assay explanation: Kinase Profiling Assay
- Assay type: biochemical
- assay conditions: 100 μM

seq: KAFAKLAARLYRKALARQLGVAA [MMI-0400]
% activity (%): 21

seq: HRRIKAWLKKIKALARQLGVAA (Mammalian) [MMI-0500]
% activity (%): 22

seq: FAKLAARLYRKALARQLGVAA [MMI-0300]
% activity (%): 26

seq: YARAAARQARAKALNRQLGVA (Mammalian) [MMI-0200]
% activity (%): 53

---

- target system: AMPKα1 (h) (Homo sapiens)
- Sequence (Q13131 whole entry): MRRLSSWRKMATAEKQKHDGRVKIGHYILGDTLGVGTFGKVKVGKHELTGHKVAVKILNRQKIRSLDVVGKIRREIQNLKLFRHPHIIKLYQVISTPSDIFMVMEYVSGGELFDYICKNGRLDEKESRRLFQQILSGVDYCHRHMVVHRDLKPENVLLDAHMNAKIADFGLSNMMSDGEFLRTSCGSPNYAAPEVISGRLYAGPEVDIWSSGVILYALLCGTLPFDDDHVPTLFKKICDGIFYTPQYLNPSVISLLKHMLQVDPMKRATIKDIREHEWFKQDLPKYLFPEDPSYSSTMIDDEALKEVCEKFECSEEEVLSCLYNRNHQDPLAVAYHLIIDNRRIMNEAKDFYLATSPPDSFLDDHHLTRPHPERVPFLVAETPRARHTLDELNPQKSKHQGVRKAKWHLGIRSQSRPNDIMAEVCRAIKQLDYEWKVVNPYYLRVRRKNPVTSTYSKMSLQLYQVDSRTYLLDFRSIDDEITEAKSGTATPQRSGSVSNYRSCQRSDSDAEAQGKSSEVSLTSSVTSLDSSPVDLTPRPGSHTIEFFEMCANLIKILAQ
- Sequence (Q9Y478 whole entry partner): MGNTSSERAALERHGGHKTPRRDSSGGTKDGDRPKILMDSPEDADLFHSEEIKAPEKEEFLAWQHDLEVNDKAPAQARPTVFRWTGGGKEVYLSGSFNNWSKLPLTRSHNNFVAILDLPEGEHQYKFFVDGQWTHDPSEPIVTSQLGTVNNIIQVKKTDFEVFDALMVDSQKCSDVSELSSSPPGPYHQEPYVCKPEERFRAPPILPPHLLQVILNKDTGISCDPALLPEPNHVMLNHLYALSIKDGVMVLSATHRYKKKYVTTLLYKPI
- Sequence (P54619 whole entry partner): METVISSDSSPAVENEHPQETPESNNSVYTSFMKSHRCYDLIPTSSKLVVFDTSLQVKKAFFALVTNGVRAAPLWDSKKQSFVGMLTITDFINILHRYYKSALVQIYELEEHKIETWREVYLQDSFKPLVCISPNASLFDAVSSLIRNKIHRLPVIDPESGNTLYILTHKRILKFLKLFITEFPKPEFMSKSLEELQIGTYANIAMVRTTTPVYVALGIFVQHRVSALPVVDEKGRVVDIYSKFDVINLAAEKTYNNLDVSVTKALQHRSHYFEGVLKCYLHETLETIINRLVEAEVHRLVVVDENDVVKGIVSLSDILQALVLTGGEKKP
- assay explanation: Kinase Profiling Assay
- Type: biochemical
- assay conditions: 100 μM
- Method: Every kinase activity measurement was conducted in duplicate. Specifically, in these assays, a positively charged substrate is phosphorylated with a radiolabeled phosphate group from an ATP if the kinase is not inhibited by an inhibitor peptide. The positively charged substrate then is attracted to a negatively charged filter membrane, quantified with a scintillation counter, and compared to a 100% activity control. […]
As shown below, each of these sequences has a reported % activity value.
recorded metric: % activity (%)

seq: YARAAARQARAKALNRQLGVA (Mammalian) [MMI-0200]
recorded metric: % activity
quantitative result: 108

seq: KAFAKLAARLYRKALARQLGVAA [MMI-0400]
recorded metric: % activity
quantitative result: 87

seq: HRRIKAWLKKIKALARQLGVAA (Mammalian) [MMI-0500]
recorded metric: % activity
quantitative result: 35

seq: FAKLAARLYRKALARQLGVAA [MMI-0300]
recorded metric: % activity
quantitative result: 71

---

As shown below, each of these sequences has a reported % activity value.
- target system: SRPK1 (h) (Homo sapiens, UniProt Q96SB4)
- assay explanation: Kinase Profiling Assay
- Type: biochemical
- assay conditions: 100 μM

seq: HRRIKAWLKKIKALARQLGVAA (Mammalian) [MMI-0500]
target system: SRPK1 (h) (Homo sapiens, UniProt Q96SB4)
value unit: %
% activity: 80

seq: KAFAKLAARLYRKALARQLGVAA [MMI-0400]
target system: SRPK1 (h) (Homo sapiens, UniProt Q96SB4)
value unit: %
% activity: 96

seq: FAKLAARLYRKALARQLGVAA [MMI-0300]
target system: SRPK1 (h) (Homo sapiens, UniProt Q96SB4)
value unit: %
% activity: 90

seq: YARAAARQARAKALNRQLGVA (Mammalian) [MMI-0200]
target system: SRPK1 (h) (Homo sapiens, UniProt Q96SB4)
value unit: %
% activity: 93

---

- target system: NEK6 (h) (Homo sapiens, UniProt Q9HC98)
- Construct: purchased Millipore
- Sequence (Q9HC98 whole entry): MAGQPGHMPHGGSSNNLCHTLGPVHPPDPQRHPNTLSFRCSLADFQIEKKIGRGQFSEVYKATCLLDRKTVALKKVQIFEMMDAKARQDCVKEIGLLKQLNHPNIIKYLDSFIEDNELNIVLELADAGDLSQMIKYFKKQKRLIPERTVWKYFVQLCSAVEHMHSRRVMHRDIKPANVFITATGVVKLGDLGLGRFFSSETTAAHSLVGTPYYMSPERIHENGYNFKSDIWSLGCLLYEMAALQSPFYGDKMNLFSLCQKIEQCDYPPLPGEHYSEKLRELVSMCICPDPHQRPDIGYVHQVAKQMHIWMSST
- assay explanation: Kinase Profiling Assay
- Assay type: biochemical
- assay conditions: 100 μM
recorded metric: % activity (%)

seq: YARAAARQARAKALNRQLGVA (Mammalian) [MMI-0200]
quantitative result: 98

seq: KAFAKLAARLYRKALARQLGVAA [MMI-0400]
quantitative result: 85

seq: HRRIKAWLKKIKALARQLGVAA (Mammalian) [MMI-0500]
quantitative result: 49

seq: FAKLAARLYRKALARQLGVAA [MMI-0300]
quantitative result: 82

---

- target system: PAK4 (h) (Homo sapiens)
- Construct: purchased Millipore
- Sequence (O96013 whole entry): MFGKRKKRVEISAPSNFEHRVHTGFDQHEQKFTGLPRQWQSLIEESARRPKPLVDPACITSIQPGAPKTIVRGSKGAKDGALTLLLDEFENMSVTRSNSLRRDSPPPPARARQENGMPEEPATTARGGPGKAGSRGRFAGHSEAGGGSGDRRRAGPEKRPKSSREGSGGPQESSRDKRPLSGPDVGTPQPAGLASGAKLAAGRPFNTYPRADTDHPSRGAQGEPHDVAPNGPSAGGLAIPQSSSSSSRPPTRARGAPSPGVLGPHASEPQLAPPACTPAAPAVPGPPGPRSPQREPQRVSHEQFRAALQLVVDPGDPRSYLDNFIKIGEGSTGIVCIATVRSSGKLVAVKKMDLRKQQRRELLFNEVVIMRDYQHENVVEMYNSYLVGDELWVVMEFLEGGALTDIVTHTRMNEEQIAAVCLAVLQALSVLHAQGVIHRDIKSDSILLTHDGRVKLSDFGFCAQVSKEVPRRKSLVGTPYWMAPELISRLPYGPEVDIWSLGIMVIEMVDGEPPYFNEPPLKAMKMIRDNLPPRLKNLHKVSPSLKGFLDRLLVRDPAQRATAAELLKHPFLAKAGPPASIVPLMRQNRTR
- assay explanation: Kinase Profiling Assay
- Type: biochemical
- assay conditions: 100 μM
As shown below, each of these sequences has a reported % activity value.

seq: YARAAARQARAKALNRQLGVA (Mammalian) [MMI-0200]
value unit: %
% activity: 98
--
seq: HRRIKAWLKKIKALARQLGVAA (Mammalian) [MMI-0500]
value unit: %
% activity: 86
--
seq: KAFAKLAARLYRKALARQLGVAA [MMI-0400]
value unit: %
% activity: 89
--
seq: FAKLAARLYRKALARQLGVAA [MMI-0300]
value unit: %
% activity: 94

---

- target system: EphA7 (h) (Homo sapiens)
- Sequence (Q15375 28-998): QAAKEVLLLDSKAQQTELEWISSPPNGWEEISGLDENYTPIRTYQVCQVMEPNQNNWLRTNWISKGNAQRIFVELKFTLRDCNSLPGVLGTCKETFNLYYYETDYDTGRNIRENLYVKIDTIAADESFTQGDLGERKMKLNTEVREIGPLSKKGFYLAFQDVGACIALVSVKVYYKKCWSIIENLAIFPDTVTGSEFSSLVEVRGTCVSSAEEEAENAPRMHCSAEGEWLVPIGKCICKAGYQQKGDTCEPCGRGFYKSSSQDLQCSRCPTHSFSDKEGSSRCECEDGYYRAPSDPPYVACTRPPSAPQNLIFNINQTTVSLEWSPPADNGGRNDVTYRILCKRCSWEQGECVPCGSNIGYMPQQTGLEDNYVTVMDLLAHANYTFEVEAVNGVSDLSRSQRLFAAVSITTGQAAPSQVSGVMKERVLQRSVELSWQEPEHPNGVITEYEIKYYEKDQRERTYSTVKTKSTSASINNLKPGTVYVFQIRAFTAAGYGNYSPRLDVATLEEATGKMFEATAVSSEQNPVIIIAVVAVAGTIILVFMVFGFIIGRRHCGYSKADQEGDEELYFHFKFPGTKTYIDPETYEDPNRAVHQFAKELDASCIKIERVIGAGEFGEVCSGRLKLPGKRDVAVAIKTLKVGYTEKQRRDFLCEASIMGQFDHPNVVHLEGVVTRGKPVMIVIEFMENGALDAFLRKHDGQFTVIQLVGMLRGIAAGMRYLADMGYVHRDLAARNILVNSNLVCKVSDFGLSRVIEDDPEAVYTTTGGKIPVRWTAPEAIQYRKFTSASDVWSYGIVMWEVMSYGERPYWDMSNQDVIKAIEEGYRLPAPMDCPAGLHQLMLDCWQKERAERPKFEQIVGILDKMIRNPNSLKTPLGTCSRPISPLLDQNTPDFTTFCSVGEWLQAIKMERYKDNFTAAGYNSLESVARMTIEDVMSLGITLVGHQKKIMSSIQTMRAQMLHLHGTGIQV
- assay explanation: Kinase Profiling Assay
- Assay type: biochemical
- assay conditions: 100 μM
- Description: Every kinase activity measurement was conducted in duplicate. Specifically, in these assays, a positively charged substrate is phosphorylated with a radiolabeled phosphate group from an ATP if the kinase is not inhibited by an inhibitor peptide. The positively charged substrate then is attracted to a negatively charged filter membrane, quantified with a scintillation counter, and compared to a 100% activity control. […]
recorded metric: % activity (%)

seq: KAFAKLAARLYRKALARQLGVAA [MMI-0400]
target system: EphA7 (h) (Homo sapiens)
quantitative result: 222
//
seq: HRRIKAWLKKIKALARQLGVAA (Mammalian) [MMI-0500]
target system: EphA7 (h) (Homo sapiens)
quantitative result: 189
//
seq: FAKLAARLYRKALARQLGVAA [MMI-0300]
target system: EphA7 (h) (Homo sapiens)
quantitative result: 159
//
seq: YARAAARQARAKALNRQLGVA (Mammalian) [MMI-0200]
target system: EphA7 (h) (Homo sapiens)
quantitative result: 220

---

- target system: MAPKAP-K3 (h) (Homo sapiens, UniProt Q16644)
- Sequence (Q16644 whole entry): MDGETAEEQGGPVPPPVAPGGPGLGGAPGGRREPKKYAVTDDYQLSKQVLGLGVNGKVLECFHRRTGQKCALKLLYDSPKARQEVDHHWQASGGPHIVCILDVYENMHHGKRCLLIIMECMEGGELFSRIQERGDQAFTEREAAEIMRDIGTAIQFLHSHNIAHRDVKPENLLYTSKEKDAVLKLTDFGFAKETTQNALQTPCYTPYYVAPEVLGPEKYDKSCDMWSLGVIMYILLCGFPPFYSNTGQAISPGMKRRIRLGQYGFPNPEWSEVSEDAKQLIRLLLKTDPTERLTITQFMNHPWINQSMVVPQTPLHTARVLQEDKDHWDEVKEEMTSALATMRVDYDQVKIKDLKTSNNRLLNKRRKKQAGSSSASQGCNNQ
- assay explanation: Kinase Profiling Assay
- Assay type: biochemical
- assay conditions: 100 μM
- Procedure: Every kinase activity measurement was conducted in duplicate. Specifically, in these assays, a positively charged substrate is phosphorylated with a radiolabeled phosphate group from an ATP if the kinase is not inhibited by an inhibitor peptide. The positively charged substrate then is attracted to a negatively charged filter membrane, quantified with a scintillation counter, and compared to a 100% activity control. […]

seq: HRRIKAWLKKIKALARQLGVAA (Mammalian) [MMI-0500]
value unit: %
% activity: 9
//
seq: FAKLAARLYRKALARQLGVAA [MMI-0300]
value unit: %
% activity: 3
//
seq: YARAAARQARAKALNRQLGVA (Mammalian) [MMI-0200]
value unit: %
% activity: 39
//
seq: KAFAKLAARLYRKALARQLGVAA [MMI-0400]
value unit: %
% activity: 7

---

- target system: CaMKIIδ (h) (Homo sapiens)
- Construct: purchased Millipore
- Sequence (Q13557 whole entry): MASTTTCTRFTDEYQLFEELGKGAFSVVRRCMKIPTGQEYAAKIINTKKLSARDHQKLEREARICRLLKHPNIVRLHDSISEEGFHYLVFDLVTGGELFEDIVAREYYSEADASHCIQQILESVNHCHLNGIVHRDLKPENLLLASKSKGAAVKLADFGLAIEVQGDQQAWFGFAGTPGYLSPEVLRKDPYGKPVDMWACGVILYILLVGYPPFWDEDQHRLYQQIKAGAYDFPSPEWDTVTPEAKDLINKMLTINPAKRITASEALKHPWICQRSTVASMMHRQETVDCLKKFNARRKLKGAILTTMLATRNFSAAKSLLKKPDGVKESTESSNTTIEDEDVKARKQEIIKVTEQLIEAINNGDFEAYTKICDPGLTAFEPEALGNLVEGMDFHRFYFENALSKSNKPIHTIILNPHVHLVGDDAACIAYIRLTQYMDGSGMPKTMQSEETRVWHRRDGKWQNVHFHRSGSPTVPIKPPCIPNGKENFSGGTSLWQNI
- assay explanation: Kinase Profiling Assay
- Format: biochemical
- assay conditions: 100 μM
As shown below, each of these sequences has a reported % activity value.

seq: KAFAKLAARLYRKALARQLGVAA [MMI-0400]
% activity (%): 2

seq: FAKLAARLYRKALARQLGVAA [MMI-0300]
% activity (%): 1

seq: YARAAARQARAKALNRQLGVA (Mammalian) [MMI-0200]
% activity (%): 2

seq: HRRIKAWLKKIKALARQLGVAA (Mammalian) [MMI-0500]
% activity (%): 1

---

As shown below, each of these sequences has a reported % activity value.
- target system: NEK2 (h) (Homo sapiens, UniProt P51955)
- Construct: purchased Millipore
- Sequence (P51955 1-445): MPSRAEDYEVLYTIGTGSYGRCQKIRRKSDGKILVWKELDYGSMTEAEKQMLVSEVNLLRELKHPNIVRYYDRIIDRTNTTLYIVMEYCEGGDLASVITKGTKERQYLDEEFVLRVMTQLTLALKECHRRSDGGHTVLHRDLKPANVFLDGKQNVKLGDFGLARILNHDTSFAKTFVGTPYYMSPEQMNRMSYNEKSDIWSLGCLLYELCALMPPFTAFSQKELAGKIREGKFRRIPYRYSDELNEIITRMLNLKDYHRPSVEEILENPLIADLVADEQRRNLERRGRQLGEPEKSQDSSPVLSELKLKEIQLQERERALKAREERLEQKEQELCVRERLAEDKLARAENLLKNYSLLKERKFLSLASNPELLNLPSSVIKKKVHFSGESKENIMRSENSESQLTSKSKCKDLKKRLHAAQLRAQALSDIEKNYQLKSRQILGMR
- assay explanation: Kinase Profiling Assay
- Assay type: biochemical
- assay conditions: 100 μM
- Method: Every kinase activity measurement was conducted in duplicate. Specifically, in these assays, a positively charged substrate is phosphorylated with a radiolabeled phosphate group from an ATP if the kinase is not inhibited by an inhibitor peptide. The positively charged substrate then is attracted to a negatively charged filter membrane, quantified with a scintillation counter, and compared to a 100% activity control. […]
recorded metric: % activity (%)

seq: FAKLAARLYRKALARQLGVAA [MMI-0300]
recorded metric: % activity
quantitative result: 78

seq: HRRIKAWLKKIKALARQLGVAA (Mammalian) [MMI-0500]
recorded metric: % activity
quantitative result: 0

seq: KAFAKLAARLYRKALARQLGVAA [MMI-0400]
recorded metric: % activity
quantitative result: 61

seq: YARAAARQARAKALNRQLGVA (Mammalian) [MMI-0200]
recorded metric: % activity
quantitative result: 97
